self-splicing fitness (ln) for assorted sequences
experiment: self-splicing fitness, log relative to wild type (ln ratio); higher = more splicing; Tetrahymena group I intron in knt gene, E. coli kanamycin selection, DiMSum; sequences stand for … in CUCUCU…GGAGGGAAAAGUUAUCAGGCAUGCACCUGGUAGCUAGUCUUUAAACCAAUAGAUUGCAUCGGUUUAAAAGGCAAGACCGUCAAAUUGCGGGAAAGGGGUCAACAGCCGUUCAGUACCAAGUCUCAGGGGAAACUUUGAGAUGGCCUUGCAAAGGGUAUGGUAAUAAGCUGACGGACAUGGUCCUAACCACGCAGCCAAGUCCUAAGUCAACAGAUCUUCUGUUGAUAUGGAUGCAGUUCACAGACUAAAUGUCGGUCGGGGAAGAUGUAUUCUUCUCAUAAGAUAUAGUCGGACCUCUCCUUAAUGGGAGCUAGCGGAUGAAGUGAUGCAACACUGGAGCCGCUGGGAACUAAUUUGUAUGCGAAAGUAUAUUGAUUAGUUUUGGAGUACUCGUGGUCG; details: 30 °C;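 also: selection with 25 µg/mL kanamycin versus none on LB agar overnight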
Endpoint label: self-splicing fitness (ln)

[
  {
    "Sequence record": "UUCGAGCAAUAUUACGCCUU",
    "Measured": -3.09
  },
  {
    "Sequence record": "UGCAAGCAAUAUUACGAGCA",
    "Measured": -2.28
  },
  {
    "Sequence record": "UGGUAGCAAUAUUACGCCGA",
    "Measured": -1.43
  },
  {
    "Sequence record": "AUACAGCAAUAUUACGGGCC",
    "Measured": -2.7
  },
  {
    "Sequence record": "GUUAAGCAAUAUUACGGUCC",
    "Measured": -0.666
  },
  {
    "Sequence record": "CAGUAGCAAUAUUACGAUUU",
    "Measured": -2.52
  },
  {
    "Sequence record": "UGGUAGCAAUAUUACGCAGG",
    "Measured": -2.77
  },
  {
    "Sequence record": "CCCUAGCAAUAUUACGUGGG",
    "Measured": -3.48
  }
]

====

Consider the following sequences and their measured self-splicing fitness (ln) readings.
assay: self-splicing fitness, log relative to wild type (ln ratio); higher = more splicing; Tetrahymena group I intron in knt gene, E. coli kanamycin selection, DiMSum; sequences stand for … in CUCUCU…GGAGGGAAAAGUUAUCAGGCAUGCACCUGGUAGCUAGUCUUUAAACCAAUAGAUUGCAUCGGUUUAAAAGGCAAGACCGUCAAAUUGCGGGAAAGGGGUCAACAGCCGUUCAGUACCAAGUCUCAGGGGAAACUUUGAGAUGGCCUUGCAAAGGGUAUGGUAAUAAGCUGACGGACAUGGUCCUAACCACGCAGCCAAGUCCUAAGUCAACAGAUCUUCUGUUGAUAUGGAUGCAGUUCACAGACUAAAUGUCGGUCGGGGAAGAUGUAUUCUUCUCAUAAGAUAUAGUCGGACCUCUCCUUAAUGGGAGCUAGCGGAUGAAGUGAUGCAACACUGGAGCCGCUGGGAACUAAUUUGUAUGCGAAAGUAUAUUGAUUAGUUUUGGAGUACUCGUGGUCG; conditions: 30 °C

[
  {
    "Sequence record": "AGUAAGCAAUAUUACGUGUU",
    "self-splicing fitness (ln)": -3.49
  },
  {
    "Sequence record": "GGACAGCAAUAUUACGGGAG",
    "self-splicing fitness (ln)": -2.73
  },
  {
    "Sequence record": "GGCAAGCAAUAUUACGGUCC",
    "self-splicing fitness (ln)": -2.95
  },
  {
    "Sequence record": "UGCGAGCAAUAUUACGACGA",
    "self-splicing fitness (ln)": -1.13
  },
  {
    "Sequence record": "GUCCAGCAAUAUUACGAUUU",
    "self-splicing fitness (ln)": -0.323
  },
  {
    "Sequence record": "AGACAGCAAUAUUACGACGG",
    "self-splicing fitness (ln)": -2.19
  },
  {
    "Sequence record": "UAGUAGCAAUAUUACGGGGU",
    "self-splicing fitness (ln)": -3
  },
  {
    "Sequence record": "CUGUAGCAAUAUUACGCAGC",
    "self-splicing fitness (ln)": -3.17
  },
  {
    "Sequence record": "UCAGAGCAAUAUUACGUGUC",
    "self-splicing fitness (ln)": -4.13
  },
  {
    "Sequence record": "CCGCAGCAAUAUUACGCUUG",
    "self-splicing fitness (ln)": -3
  },
  {
    "Sequence record": "UUAUAGCAAUAUUACGUUCG",
    "self-splicing fitness (ln)": -0.942
  },
  {
    "Sequence record": "ACCCAGCAAUAUUACGGCAU",
    "self-splicing fitness (ln)": -0.483
  },
  {
    "Sequence record": "UUAAAGCAAUAUUACGUGAC",
    "self-splicing fitness (ln)": -1.93
  },
  {
    "Sequence record": "CGAAAGCAAUAUUACGCUCC",
    "self-splicing fitness (ln)": -1.14
  },
  {
    "Sequence record": "CACGAGCAAUAUUACGUUAU",
    "self-splicing fitness (ln)": -3.4
  },
  {
    "Sequence record": "GUUUAGCAAUAUUACGAGAG",
    "self-splicing fitness (ln)": -3.02
  },
  {
    "Sequence record": "GGCGAGCAAUAUUACGACUC",
    "self-splicing fitness (ln)": -0.185
  },
  {
    "Sequence record": "AUGGAGCAAUAUUACGUCGG",
    "self-splicing fitness (ln)": -2.7
  },
  {
    "Sequence record": "CACCAGCAAUAUUACGUGCA",
    "self-splicing fitness (ln)": -4.11
  },
  {
    "Sequence record": "UUCAAGCAAUAUUACGCCGA",
    "self-splicing fitness (ln)": -0.5
  },
  {
    "Sequence record": "AAGCAGCAAUAUUACGGCUC",
    "self-splicing fitness (ln)": -1.67
  },
  {
    "Sequence record": "UUAAAGCAAUAUUACGCCAU",
    "self-splicing fitness (ln)": -2.96
  },
  {
    "Sequence record": "CAUAAGCAAUAUUACGGAAG",
    "self-splicing fitness (ln)": -1.43
  },
  {
    "Sequence record": "UAAGAGCAAUAUUACGUAAC",
    "self-splicing fitness (ln)": -5.23
  },
  {
    "Sequence record": "GUGUAGCAAUAUUACGAUUG",
    "self-splicing fitness (ln)": -4.18
  },
  {
    "Sequence record": "UAAAAGCAAUAUUACGAGUA",
    "self-splicing fitness (ln)": -1.26
  },
  {
    "Sequence record": "GGACAGCAAUAUUACGCUGA",
    "self-splicing fitness (ln)": -2.21
  },
  {
    "Sequence record": "GAAAAGCAAUAUUACGAUCA",
    "self-splicing fitness (ln)": -0.39
  },
  {
    "Sequence record": "GAUCAGCAAUAUUACGACCG",
    "self-splicing fitness (ln)": -1.01
  },
  {
    "Sequence record": "UUUGAGCAAUAUUACGCUCG",
    "self-splicing fitness (ln)": -3.8
  },
  {
    "Sequence record": "AGUCAGCAAUAUUACGUUUC",
    "self-splicing fitness (ln)": -3.63
  },
  {
    "Sequence record": "GGUUAGCAAUAUUACGCGGA",
    "self-splicing fitness (ln)": -1.4
  },
  {
    "Sequence record": "AUAUAGCAAUAUUACGUUCU",
    "self-splicing fitness (ln)": -1.47
  },
  {
    "Sequence record": "ACCCAGCAAUAUUACGGUCU",
    "self-splicing fitness (ln)": -1.12
  }
]

Every entry's value here was drawn from the supplement of paper PMC7877785.
